# Test system: 521955-158-R2-J5-PDC complex spheroid growth;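 further: spheroids mix tumor cells with HUVEC endothelium and human MSC stroma; luminescence taken as viability surrogate after a week of drug exposure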
# MEASUREMENT NOTES: Anticancer human tumor 521955-158-R2-J5-PDC patient-derived pancreatic carcinoma cell line growth inhibition [AhR]
# RECORDED CONDITIONS: second compound 0.316 µM; first compound 0.0316 µM; hits give low values
MEASURE: viability, T/C (%)
Form entry: value (%) — number only.

Some solved cases for reference:
CC1(C)CCC(CN2CCN(c3ccc(C(=O)NS(=O)(=O)c4ccc(NCC5CCOCC5)c([N+](=O)[O-])c4)c(Oc4cnc5[nH]ccc5c4)c3)CC2)=C(c2ccc(Cl)cc2)C1 + Cc1ccccc1N=Nc1ccc(NC(=O)c2ccnn2C)c(C)c1 yielded viability, T/C of 110

CC(C)c1c(-c2ccccc2)nc2c(C#N)c[nH]n2c1=O + Cc1cncc(-c2nc(NCCc3c[nH]c4ccccc34)c3ncn(C(C)C)c3n2)c1 yielded viability, T/C of 101

Continuing:
NS(=O)(=O)OCC1CC(n2ccc3c(NC4CCc5ccccc54)ncnc32)CC1O (centres undefined) + Cc1ccccc1N=Nc1ccc(NC(=O)c2ccnn2C)c(C)c1 yielded viability, T/C of 111

CC(C)c1c(-c2ccccc2)nc2c(C#N)c[nH]n2c1=O + CC(CO)NC(=O)c1cc(-c2ccc(Cl)cc2)nn(-c2cnn(C)c2)c1=O yielded viability, T/C of 80.1

COc1cccc2c1C(=O)c1c(O)c3c(c(O)c1C2=O)CC(O)(C(=O)CO)CC3OC1CC(N)C(O)C(C)O1 (centres undefined) + Cc1ccccc1N=Nc1ccc(NC(=O)c2ccnn2C)c(C)c1 yielded viability, T/C of 53.9

O=C(c1cc(Cc2n[nH]c(=O)c3ccccc23)ccc1F)N1CCN(C(=O)C2CC2)CC1 + Cc1ccccc1N=Nc1ccc(NC(=O)c2ccnn2C)c(C)c1 yielded viability, T/C of 90

Data origin: PubChem BioAssay AID1918998
